From: paper PMC12051234

- Measured On: T1, SpnNrdR (Streptococcus pneumoniae TIGR4, UniProt P67318 1-157)
- T1 sequence: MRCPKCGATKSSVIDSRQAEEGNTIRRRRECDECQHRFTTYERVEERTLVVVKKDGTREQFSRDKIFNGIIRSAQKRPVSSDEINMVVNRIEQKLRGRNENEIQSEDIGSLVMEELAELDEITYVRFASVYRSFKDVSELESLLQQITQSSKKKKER
- Measurement Description: MST; dATP + ATP; MST, temperature not stated. Lmo: 25 mM Bis-Tris propane pH 6.5, 100 mM KCl, 5 mM MgCl2, 5% glycerol, 1 mM DTT, 0.05% Tween 20, one nucleotide 1 mM or two at 0.5 mM each; Spn: 25 mM HEPES pH 7.2, 250 mM NaCl, 2.5 mM MgCl2, 15% glycerol, 2 mM DTT, 0.1 mg/mL BSA, 0.05% Tween 20, 0.5 mM ATP and/or dATP; Eco: 25 mM Tris pH 8.5, 100 mM NaCl, 7 mM MgCl2, 1 mM DTT, 0.025% Tween 20, 1 mM ATP + 1 mM dATP; …
- Condition Label: protein: recombinant; tags: C-terminal His6; chain copies: 4; label: 5'-Cy5 sense; blunt
List of Kd values.
A number alone suffices; assume µM.

binder="Synt 25 bp spacer (dsDNA) DNA 1: GCCAAACACAACATCTAGTGGTTGGATAGCGTGAAGTTCACCTAGCACACAACATCTAGTGGACCTC DNA 2: GAGGTCCACTAGATGTTGTGTGCTAGGTGAACTTCACGCTATCCAACCACTAGATGTTGTGTTTGGC" endpoint_label=Kd unit_string=µM experimental_result=4.37

Request: I have this binder here, Synt 17 bp spacer (dsDNA) DNA 1: GCCAAACACAACATCTAGTGGTTGGATAGCGTGAAGGCACACAACATCTAGTGGACCTC DNA 2: GAGGTCCACTAGATGTTGTGTGCCTTCACGCTATCCAACCACTAGATGTTGTGTTTGGC , and I need its recorded Kd.
Result: 0.34
